tested on: Cyperus iria; assay: Preemergence weed control under flooded paddy conditions, CYPIR (Rice Flatsedge); format: in vivo; settings: 0.1250 kg/ha; preemergence, flooded paddy; rated three to four weeks after treatment
Provide the reported CYPIR herbicidal rating of each item.

Lab note: record CYPIR herbicidal rating of `Cn1c(C(F)(F)F)cc(=O)n(-c2ccc3snc(C(=O)NS(=O)(=O)Cc4cccc(Cl)c4)c3c2)c1=O` tested on Cyperus iria.
6.0

Lab note: record CYPIR herbicidal rating of `COC(CCOc1ccc(C)cc1-c1nsc2ccc(-n3c(=O)cc(C(F)(F)F)n(C)c3=O)cc12)OC` tested on Cyperus iria.
6.0

Lab note: record CYPIR herbicidal rating of COC(=O)C(C)Oc1ccc(I)cc1-c1nsc2ccc(-n3c(=O)cc(C(F)(F)F)n(C)c3=O)cc12 (stereo not drawn) tested on Cyperus iria.
3.0
